The measured values listed here are drawn from ChEMBL document CHEMBL1136055.

# TEST PROTOCOL: Maximum concentration at a dose of 2.0 mg/kg
# Type: ADME, organism-based
# Set-up: dose 2 mg/kg
# CONDITION CONTEXT: in vivo

SMILES NOTATION | Cmax
COc1ccc(-c2cc(-c3nc(C)cs3)c(=O)n(C)c2-c2ccncc2)cc1 | 83 ng/mL

====

# MEASURED ON: GABA-A receptor; alpha-5/beta-3/gamma-2 (Homo sapiens, UniProt P18507+P28472+P31644)
# Sequence (P18507 whole entry): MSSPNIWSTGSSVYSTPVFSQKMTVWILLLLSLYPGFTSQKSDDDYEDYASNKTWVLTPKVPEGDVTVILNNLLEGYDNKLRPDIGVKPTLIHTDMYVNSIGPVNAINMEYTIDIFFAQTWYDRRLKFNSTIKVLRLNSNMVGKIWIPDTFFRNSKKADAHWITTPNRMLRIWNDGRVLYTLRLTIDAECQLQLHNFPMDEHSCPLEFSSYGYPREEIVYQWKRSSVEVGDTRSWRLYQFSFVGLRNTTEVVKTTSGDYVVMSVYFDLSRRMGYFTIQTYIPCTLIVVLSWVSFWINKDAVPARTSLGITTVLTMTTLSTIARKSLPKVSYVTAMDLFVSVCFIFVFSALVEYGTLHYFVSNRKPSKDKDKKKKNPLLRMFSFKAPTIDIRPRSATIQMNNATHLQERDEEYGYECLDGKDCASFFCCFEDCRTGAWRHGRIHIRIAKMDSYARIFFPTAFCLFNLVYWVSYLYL
# Sequence (P28472 whole entry): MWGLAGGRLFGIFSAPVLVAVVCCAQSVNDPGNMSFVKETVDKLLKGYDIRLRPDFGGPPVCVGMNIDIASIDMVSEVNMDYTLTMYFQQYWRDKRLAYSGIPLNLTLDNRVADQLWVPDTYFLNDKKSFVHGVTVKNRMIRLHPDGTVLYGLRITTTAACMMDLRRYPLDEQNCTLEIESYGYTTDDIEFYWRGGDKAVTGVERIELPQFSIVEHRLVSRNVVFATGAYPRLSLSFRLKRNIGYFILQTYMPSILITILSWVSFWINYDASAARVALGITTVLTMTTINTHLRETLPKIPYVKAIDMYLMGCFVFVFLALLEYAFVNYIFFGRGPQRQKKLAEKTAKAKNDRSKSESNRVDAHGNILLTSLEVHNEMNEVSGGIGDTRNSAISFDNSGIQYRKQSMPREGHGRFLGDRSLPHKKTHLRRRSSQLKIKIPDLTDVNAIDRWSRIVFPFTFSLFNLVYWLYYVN
# Sequence (P31644 whole entry): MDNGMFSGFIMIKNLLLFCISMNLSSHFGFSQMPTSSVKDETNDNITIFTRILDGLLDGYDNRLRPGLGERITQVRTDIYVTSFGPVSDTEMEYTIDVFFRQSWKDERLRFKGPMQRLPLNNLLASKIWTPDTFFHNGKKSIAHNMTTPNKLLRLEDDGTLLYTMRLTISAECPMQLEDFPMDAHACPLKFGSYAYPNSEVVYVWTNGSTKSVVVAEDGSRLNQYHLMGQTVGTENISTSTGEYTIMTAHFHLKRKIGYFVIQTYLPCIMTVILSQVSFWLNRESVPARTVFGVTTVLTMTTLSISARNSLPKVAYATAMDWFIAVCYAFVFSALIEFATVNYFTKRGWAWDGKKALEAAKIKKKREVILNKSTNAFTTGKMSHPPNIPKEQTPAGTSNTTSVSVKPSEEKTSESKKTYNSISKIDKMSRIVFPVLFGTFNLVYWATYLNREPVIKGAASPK
# TEST PROTOCOL: Displacement of [3H]Ro-151788 from human GABA-A receptor alpha-5-beta-3-gamma-2 subunits expressed in L(tk-) cells (<50% inhibition at 2 uM)
# Format: cell-based

SMILES NOTATION | MEASURED ON | Ki
COc1ccc(-c2cc(C#N)c(=O)n(C)c2-c2ccc(N(C)C)cc2)cc1 | GABA-A receptor; alpha-5/beta-3/gamma-2 (Homo sapiens, UniProt P18507+P28472+P31644) | > 667 nM
